# System: 282377-053-R-J1-PDC complex spheroid viability;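 further: spheroids exposed to agents for seven days before readout; luminescence viability as percent of DMSO vehicle control wells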
# protocol summary: Anticancer human tumor 282377-053-R-J1-PDC patient-derived colon adenocarcinoma cell line growth inhibition [RAS]
# assay conditions: second compound 0.03 µM; first compound 0.0316 µM; active compounds read low
metric name: viability, T/C (%)
Answer format: numeric, % implied, no suffix.

Guide cases for viability, T/C, answers given:
molecule	value
CC(C)n1nc(-c2ccc3oc(N)nc3c2)c2c(N)ncnc21 + CCn1c(-c2cc(N3CCN(C)CC3)cnc2C(C)OC)c2c3cc(ccc31)-c1csc(n1)CC(NC(=O)C1CC1C)C(=O)N1CCCC(N1)C(=O)OCC(C)(C)C2	54
CC(C)NCC(C(=O)N1CCN(c2ncnc3c2C(C)CC3O)CC1)c1ccc(Cl)cc1 (centres undefined) + CCn1c(-c2cccnc2C(C)OC)c2c3cc(ccc31)N1CCOC(CC(NC(=O)C(C(C)C)N(C)C(=O)C3(F)CCN(C(=O)C#CC(C)(C)N(C)C)CC3)C(=O)N3CCCC(N3)C(=O)OCC(C)(C)C2)C1	104
CCN1CCN(Cc2ccc(Nc3ncc(F)c(-c4cc(F)c5nc(C)n(C(C)C)c5c4)n3)nc2)CC1 + CCn1c(-c2cc(N3CCN(C)CC3)cnc2C(C)OC)c2c3cc(ccc31)-c1csc(n1)CC(NC(=O)C1CC1C)C(=O)N1CCCC(N1)C(=O)OCC(C)(C)C2	87.7

As a next step, examine the molecule that follows.
Lab note: Nc1ccn(C2OC(CO)C(O)C2(F)F)c(=O)n1 (centres undefined) + CCn1c(-c2cc(N3CCN(C)CC3)cnc2C(C)OC)c2c3cc(ccc31)-c1csc(n1)CC(NC(=O)C1CC1C)C(=O)N1CCCC(N1)C(=O)OCC(C)(C)C2 gave viability, T/C of 108
